These data points were gathered from patent US20250345329A1.

# targetOrTestSystem: human EGFR (d746-750/T790M/C797S) (Homo sapiens, UniProt P00533, C797S/DEL746-750/T790M)
# Construct: human EGFR (d746-750/T790M/C797S) (668-end, SignalChem)
# Sequence (P00533 with tags, fused parts or gaps DEL746-750/T790M/C797S): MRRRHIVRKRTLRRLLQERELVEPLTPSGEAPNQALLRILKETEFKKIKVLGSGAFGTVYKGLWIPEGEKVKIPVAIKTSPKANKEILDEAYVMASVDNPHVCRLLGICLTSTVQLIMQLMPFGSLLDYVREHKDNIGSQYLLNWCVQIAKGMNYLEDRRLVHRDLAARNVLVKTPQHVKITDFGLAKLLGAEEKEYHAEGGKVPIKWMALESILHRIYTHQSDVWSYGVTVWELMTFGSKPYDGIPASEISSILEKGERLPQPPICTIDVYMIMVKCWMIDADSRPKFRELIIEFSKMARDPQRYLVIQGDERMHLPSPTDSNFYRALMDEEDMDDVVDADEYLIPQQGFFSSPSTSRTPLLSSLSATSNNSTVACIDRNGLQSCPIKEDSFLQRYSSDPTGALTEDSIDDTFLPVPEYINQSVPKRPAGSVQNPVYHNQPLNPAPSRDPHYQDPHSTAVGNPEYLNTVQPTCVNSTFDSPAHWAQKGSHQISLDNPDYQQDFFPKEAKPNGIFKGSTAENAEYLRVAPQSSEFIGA
# measurementProtocol: EGFR C797S enzyme inhibition activity (ADP-Glo kinase assay)
# condition: purified enzyme 3 ng, ATP 5 μM, 25° C., 1 hour, luminescence; read-out: EGFR DTC Enzyme IC50
pIC50: −log10 of the molar value.
The following molecules are listed with their measured pIC50 values.

Example entries and their recorded answers appear below.
INSERT INTO assay_data (molecule, result) VALUES
  ('C[C@H]1CCOc2c(cnn2C)-c2nccc(n2)Nc2cc(c(C(=O)NCC#N)cn2)N1 [Example 80]', '> 7.30'),
  ('CO[C@H]1CCN(c2nccc(Nc3cc(NC4CCNC4)c(C(=O)N4CC(CS(C)(=O)=O)C4)cn3)n2)C[C@H]1F (relative stereo) [Example 15]', '6.30 to 7.30');

Ask: Which value of pIC50 has been reported for CC(C)Nc1cc(Nc2ccnc(-c3cnn(S(=O)(=O)C4CC4)c3)n2)ncc1C(=O)Nc1cc(N2CCC(N3CCN(C)CC3)CC2)cc(S(C)(=O)=O)c1 [Example 75] in the records?
Reply: > 7.30

* * *

# targetOrTestSystem: human EGFR (d746-750/T790M/C797S) (Homo sapiens, UniProt P00533, C797S/DEL746-750/T790M)
# Construct: human EGFR (d746-750/T790M/C797S) (668-end, SignalChem); purchased SignalChem
# measurementProtocol: EGFR C797S enzyme inhibition activity (ADP-Glo kinase assay)
# Assay type: biochemical
# condition: purified enzyme 3 ng, ATP 5 μM, 25° C., 1 hour, luminescence; read-out: EGFR DTC Enzyme IC50
pIC50: −log10 of the molar value.
The following compounds are listed with their measured pIC50 values.

INSERT INTO measurements (compound, result) VALUES
  ('CC(C)Nc1cc(Nc2ccnc(-c3cnn(S(=O)(=O)C4CC4)c3)n2)ncc1C(=O)Nc1cnn(S(=O)(=O)C2CC2)c1 [Example 32]', '6.30 to 7.30'),
  ('C[C@H]1CCOc2c(cnn2C)-c2nccc(n2)Nc2cc(c(C(=O)Nc3cccc(N4CCN(C)CC4)c3)cn2)N1 [Example 100]', '> 7.30');

Let's switch to this compound now.
Ask: Request - read-out pIC50 | tested on human EGFR (d746-750/T790M/C797S) (Homo sapiens, UniProt P00533, C797S/DEL746-750/T790M) | compound CC(C)Nc1cc(Nc2ccnc(-c3cnn(S(=O)(=O)C4CC4)c3)n2)ncc1C(=O)NCCCS(C)(=O)=O [Example 64]
Reply: 6.30 to 7.30

* * *

# targetOrTestSystem: human EGFR (d746-750/T790M/C797S) (Homo sapiens, UniProt P00533, C797S/DEL746-750/T790M)
# Construct: human EGFR (d746-750/T790M/C797S) (668-end, SignalChem)
# measurementProtocol: EGFR C797S enzyme inhibition activity (ADP-Glo kinase assay)
# condition: purified enzyme 3 ng, ATP 5 μM, 25° C., 1 hour, luminescence; read-out: EGFR DTC Enzyme IC50
property: IC50

INSERT INTO assay_data (molecule, result) VALUES
  ('CC(C)Nc1cc(Nc2ccnc(-c3cnn(S(=O)(=O)C4CC4)c3)n2)ncc1C(=O)N1CC[C@H](CN2CCN(C)CC2)C1 [Example 65]', '< 0.05 µM'),
  ('CNCCCNC(=O)c1cnc(Nc2ccnc(-c3cnn(S(=O)(=O)C4CC4)c3)n2)cc1NC(C)C [Example 60]', '< 0.05 µM'),
  ('CC(C)Nc1cc(Nc2ccnc(-c3cnn(S(=O)(=O)C4CC4)c3)n2)ncc1C(=O)NCC1CCCC1 [Example 56]', '0.05 to 0.5 µM'),
  ('CC(C)Nc1cc(Nc2ccnc(-c3cnn(S(=O)(=O)C4CC4)c3)n2)ncc1C(=O)NCC(F)(F)F [Example 78]', '< 0.05 µM'),
  ('CO[C@H]1CCN(c2nccc(Nc3cc(NC(C)C)c(C(=O)N4CC(CS(C)(=O)=O)C4)cn3)n2)C[C@H]1F (relative stereo) [Example 2]', '< 0.05 µM');

Ask: Which value of IC50 has been reported for CC(C)Nc1cc(Nc2ccnc(-c3cnn(S(=O)(=O)C4CC4)c3)n2)ncc1C(=O)NC1CC(F)(F)C1 [Example 99] in the records?
Reply: 0.05 to 0.5 µM

Ask: Which value of IC50 has been reported for CNCCCNC(=O)c1cnc(Nc2ccnc(-c3cn[nH]c3)n2)cc1NC(C)C [Example 59] in the records?
Reply: < 0.05 µM
